Target: UniProt:P08684
Sequence (P08684 whole entry): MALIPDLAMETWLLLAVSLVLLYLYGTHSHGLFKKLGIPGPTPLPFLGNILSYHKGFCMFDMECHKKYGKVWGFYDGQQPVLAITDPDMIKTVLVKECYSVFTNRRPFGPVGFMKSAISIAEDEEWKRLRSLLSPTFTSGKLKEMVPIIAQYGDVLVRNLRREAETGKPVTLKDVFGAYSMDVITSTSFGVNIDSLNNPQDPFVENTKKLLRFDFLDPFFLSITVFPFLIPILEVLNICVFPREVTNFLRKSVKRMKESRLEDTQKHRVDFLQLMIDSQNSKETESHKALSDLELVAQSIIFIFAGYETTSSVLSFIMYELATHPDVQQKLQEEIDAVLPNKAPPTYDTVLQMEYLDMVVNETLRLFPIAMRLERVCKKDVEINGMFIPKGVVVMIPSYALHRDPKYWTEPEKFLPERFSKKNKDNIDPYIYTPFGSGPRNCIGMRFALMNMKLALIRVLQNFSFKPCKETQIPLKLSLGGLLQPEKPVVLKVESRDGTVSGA
Method description: Inhibition of human recombinant CYP3A4 at 10 uM using beetle D-luciferin as substrate by CYP450-Glo assay
Type: ADME
Condition parameters: recombinant CYP3A4, probe beetle D-luciferin
Measured endpoint: inhibition at 10 µM

Enquiry: Supply recorded inhibition at 10 µM for CCCOc1ccc(-c2cc(OCCN3CCc4cc(OC)c(OC)cc4C3)c3cc(OC)c(OC)cc3n2)cc1 here.
Return: ≤ 60%

* * *

Test system: Staphylococcus aureus
Method description: Antimicrobial activity against Staphylococcus aureus SA-1199B expressing wild type norA and co-expressing GrlA A116E mutant by microdilution method
Format: organism-based
Condition parameters: in vivo
Measured endpoint: MIC

Enquiry: Supply recorded MIC for COC(=O)[C@H]1[C@H]2C[C@@H]3c4[nH]c5cc(OC)ccc5c4CCN3C[C@H]2C[C@@H](OC(=O)c2cc(OC)c(OC)c(OC)c2)[C@@H]1OC [RESERPINE] here.
Return: > 164 µM

Enquiry: Supply recorded MIC for CCCOc1ccc(-c2cc(OCCN(CC)CC)c3ccc(OC)cc3n2)cc1 here.
Return: > 245 µM

Enquiry: Supply recorded MIC for CCCOc1ccc(-c2cc(OCCN3CCCCCC3)c3cc(OC)cc(OC)c3n2)cc1 here.
Return: > 215 µM

* * *

Kindly state MIC for each of the entries shown.
Test system: Staphylococcus aureus
Method description: Antimicrobial activity against Staphylococcus aureus SA-1199B expressing wild type norA and co-expressing GrlA A116E mutant by microdilution method
Format: organism-based
Condition parameters: in vivo

Enquiry: Supply recorded MIC for CCCOc1ccc(-c2cc(OCCN3CCc4cc(OC)c(OC)cc4C3)c3cc(OC)c(OC)cc3n2)cc1 here.
Return: > 179 µM

Enquiry: Supply recorded MIC for CCCOc1ccc(-c2cc(OCCN3CCNCC3)c3cccc(OC)c3n2)cc1 here.
Return: > 237 µM

Enquiry: Supply recorded MIC for CCCOc1ccc(-c2cc(OCCN3CCN(Cc4ccccc4)CC3)c3ccc(OC)cc3n2)cc1 here.
Return: > 195 µM

Enquiry: Supply recorded MIC for CCCOc1ccc(-c2cc(OCCN(CC)CC)c3cc(OC)c(OC)cc3n2)cc1 here.
Return: > 228 µM

* * *

Target: Quinolone resistance protein NorA (Staphylococcus aureus, UniProt P0A0J7, A116E)
Method description: Inhibition of NorA in Staphylococcus aureus SA-1199B expressing GrlA A116E mutant assessed as reduction in EtBr efflux incubated for 5 mins by fluorescence based assay
Measured endpoint: pIC50
pIC50 is defined as minus the log10 of a concentration measured in mol/L.

Enquiry: Report value only: pIC50, Quinolone resistance protein NorA (Staphylococcus aureus, UniProt P0A0J7, A116E), CCCOc1ccc(-c2cc(OCCN3CCNCC3)c3cc(OC)ccc3n2)cc1
Return: 4.81

Enquiry: Report value only: pIC50, Quinolone resistance protein NorA (Staphylococcus aureus, UniProt P0A0J7, A116E), CCCOc1ccc(-c2cc(OCCN3CCCCC3)c3cccc(OC)c3n2)cc1
Return: 4.92

Enquiry: Report value only: pIC50, Quinolone resistance protein NorA (Staphylococcus aureus, UniProt P0A0J7, A116E), CCCOc1ccc(-c2cc(OCCN3CCc4cc(OC)c(OC)cc4C3)c3cc(OC)cc(OC)c3n2)cc1
Return: 5.42

Enquiry: Report value only: pIC50, Quinolone resistance protein NorA (Staphylococcus aureus, UniProt P0A0J7, A116E), CCCOc1ccc(-c2cc(OCCN(CC)CC)c3cc(OC)cc(OC)c3n2)cc1
Return: 5.34

Enquiry: Report value only: pIC50, Quinolone resistance protein NorA (Staphylococcus aureus, UniProt P0A0J7, A116E), CCCOc1ccc(-c2cc(OCCN3CCCCC3)c3c(OC)cccc3n2)cc1
Return: 4.72

Enquiry: Report value only: pIC50, Quinolone resistance protein NorA (Staphylococcus aureus, UniProt P0A0J7, A116E), CCCOc1ccc(-c2cc(OCCN3CCN(Cc4ccccc4)CC3)c3ccc(OC)cc3n2)cc1
Return: 5.14

Enquiry: Report value only: pIC50, Quinolone resistance protein NorA (Staphylococcus aureus, UniProt P0A0J7, A116E), CCCOc1ccc(-c2cc(OCCN(CC)CC)c3cc(OC)c(OC)cc3n2)cc1
Return: 5.39

Enquiry: Report value only: pIC50, Quinolone resistance protein NorA (Staphylococcus aureus, UniProt P0A0J7, A116E), CCCOc1ccc(-c2cc(OCCN3CCCCC3)c3cc(OC)c(OC)cc3n2)cc1
Return: 5.41

Enquiry: Report value only: pIC50, Quinolone resistance protein NorA (Staphylococcus aureus, UniProt P0A0J7, A116E), CCCOc1ccc(-c2cc(OCCN(CC)CC)c3cccc(OC)c3n2)cc1
Return: 4.86

Enquiry: Report value only: pIC50, Quinolone resistance protein NorA (Staphylococcus aureus, UniProt P0A0J7, A116E), CCCOc1ccc(-c2cc(OCCN3CCc4cc(OC)c(OC)cc4C3)c3cc(OC)c(OC)cc3n2)cc1
Return: 5.96

Enquiry: Report value only: pIC50, Quinolone resistance protein NorA (Staphylococcus aureus, UniProt P0A0J7, A116E), CCCOc1ccc(-c2cc(OCCN(CC)CC)c3c(OC)cc(OC)cc3n2)cc1
Return: 5.55

Enquiry: Report value only: pIC50, Quinolone resistance protein NorA (Staphylococcus aureus, UniProt P0A0J7, A116E), CCCOc1ccc(-c2cc(OCCN3CCCCC3)c3cc(OC)cc(OC)c3n2)cc1
Return: 5.42

Enquiry: Report value only: pIC50, Quinolone resistance protein NorA (Staphylococcus aureus, UniProt P0A0J7, A116E), CCCOc1ccc(-c2cc(OCCN3CCCCCC3)c3ccc(OC)cc3n2)cc1
Return: 5.31

Enquiry: Report value only: pIC50, Quinolone resistance protein NorA (Staphylococcus aureus, UniProt P0A0J7, A116E), CCCOc1ccc(-c2cc(OCCN3CCNCC3)c3ccc(OC)cc3n2)cc1
Return: 5.26

Enquiry: Report value only: pIC50, Quinolone resistance protein NorA (Staphylococcus aureus, UniProt P0A0J7, A116E), CCCOc1ccc(-c2cc(OCCN3CCCCCC3)c3cc(OC)ccc3n2)cc1
Return: 5.09

Enquiry: Report value only: pIC50, Quinolone resistance protein NorA (Staphylococcus aureus, UniProt P0A0J7, A116E), CCCOc1ccc(-c2cc(OCCN(CC)CC)c3ccc(OC)cc3n2)cc1
Return: 5.33

Enquiry: Report value only: pIC50, Quinolone resistance protein NorA (Staphylococcus aureus, UniProt P0A0J7, A116E), CCCOc1ccc(-c2cc(OCCN3CCCCC3)c3ccc(OC)cc3n2)cc1
Return: 5.40

Cited source: ChEMBL document CHEMBL4145675
